Assay: Membrane permeability test using Caco-2 cells with preincubation
Format: in vitro ADME
Settings: Caco-2; preincubation 20 to 24 hours; Apical FaSSIF/HBSS pH 6.0, Basal HBSS 4% BSA pH 7.4; 180 minutes; read-out: Caco2 Papp
Experimental: The permeability coefficient (Caco-2 Papp (cm/sec)) is calculated using a numerical expression 1. [Expression 1] Papp = (1)/(C1 (0) × S) × (dQ)/(dt) [formula] dQ/dt represents the permeation rate of drug (the amount of drug appearing on the Basal side per unit time), S represents the total surface area of cells, and C1(0) represents the concentration of drug added on the Apical side. […]
Positions of bridges follow the written chain, without caps; N, C: chain ends. Non-standard residues stand in square brackets, D forms with d. Residues, ends and D or L forms follow the SMILES beside them. *: point of attachment. NMeF = CN[C@@H](Cc1ccccc1)C(=O)O; NMeL = CN[C@@H](CC(C)C)C(=O)O; NMeV = CN[C@H](C(=O)O)C(C)C; Piperidide = C1CCN(*)CC1; Abu = CC[C@H](N)C(=O)O; Sar = CNCC(=O)O; tBu = CC(C)(C)*

[
  {
    "molecule": "CC[C@@H]1NC(=O)[C@H](C(C)C)N(C)C(=O)[C@H](CC(C)C)NC(=O)[C@H](CC(C)C)N(C)C(=O)[C@H]([C@@H](C)O)NC(=O)CN(C)C(=O)[C@H]([C@@H](C)CC)NC(=O)[C@H](Cc2ccccc2)N(C)C(=O)[C@H](CC(C)C)N(C)C(=O)C[C@@H](C(=O)N2CCCCC2)NC(=O)[C@H](Cc2ccccc2)N(C)C(=O)[C@H](COC(C)(C)C)NC(=O)[C@@H]2CCCN2C1=O [pd106] ([NMeL][NMeF]I[Sar]T[NMeL]L[NMeV][Abu]PS(tBu)[NMeF]D-Piperidide; lactam N-13)",
    "Papp A→B": "0.24 ×10⁻⁶ cm/s"
  }
]

###

System: Caco-2 cells
Test: Membrane permeability test using Caco-2 cells with preincubation
Assay type: in vitro ADME
Settings: Caco-2 cells, preincubation 20 to 24 hours; apical FaSSIF/HBSS 1% DMSO pH 6.0, basal HBSS 4% BSA pH 7.4; basal sample at 180 minutes
Starred links: 1 amine or outer side, 2 acyl side, 3 side chain; linkers in the order of their positions; H or OH if unused. Positions of bridges follow the written chain, without caps; N, C: chain ends. Non-standard residues stand in square brackets, D forms with d. Residues, ends and D or L forms follow the SMILES beside them. *: point of attachment. NMedβ3hAla = C[C@H](CC(=O)[*:2])N(C)[*:1]; NMeF = CN[C@@H](Cc1ccccc1)C(=O)O; NMeT = CN[C@H](C(=O)O)[C@@H](C)O; hPhe = N[C@@H](CCc1ccccc1)C(=O)O; NMeD = CN[C@@H](CC(=O)O)C(=O)O; NMeL = CN[C@@H](CC(C)C)C(=O)O; NMeV = CN[C@H](C(=O)O)C(C)C; NMeAbu = CC[C@H](NC)C(=O)O; NMeA = CN[C@@H](C)C(=O)O; Piperidide = C1CCN(*)CC1; NBuGly = CCCCNCC(=O)O; tBu = CC(C)(C)*

[
  {
    "molecule": "CCCCN1CC(=O)N(C)[C@@H](CC(C)C)C(=O)N[C@@H]([C@@H](C)O)C(=O)N(C)[C@@H](C)C(=O)N2CCC[C@H]2C(=O)N[C@@H](CCc2ccccc2)C(=O)N[C@@H]([C@@H](C)CC)C(=O)N(C)[C@H](C(=O)N2CCCCC2)CC(=O)N(C)[C@@H](CC(C)C)C(=O)N[C@@H](COC(C)(C)C)C(=O)N(C)[C@@H](C(C)C)C(=O)N[C@@H]([C@@H](C)CC)C(=O)N2CCC[C@H]2C(=O)N[C@@H](C(C)C)C1=O [pd087] ([NMeL]S(tBu)[NMeV]IPV[NBuGly][NMeL]T[NMeA]P[hPhe]I[NMeD]-Piperidide; lactam N-14)",
    "Caco2 Papp (10^-6 cm/sec)": "<0.07 10^-6 cm/sec"
  },
  {
    "molecule": "CC[C@H]1C(=O)N(C)[C@H](C)CC(=O)N[C@H](C(C)C)C(=O)N(C)[C@@H](CC(C)C)C(=O)N(C)[C@@H](C(C)C)C(=O)N[C@@H](C)C(=O)N(C)[C@@H](CC(C)C)C(=O)NCC(=O)N(C)[C@@H]([C@@H](C)O)C(=O)N(C)[C@@H](Cc2ccccc2)C(=O)N(C)[C@@H](CC)C(=O)N[C@@H](COC(C)(C)C)C(=O)N(C)[C@@H](C)C(=O)N(C)[C@@H](C(C)C)C(=O)N1C [pd071] (cyclo(A[NMeL]G[NMeT][NMeF][NMeAbu]S(tBu)[NMeA][NMeV][NMeAbu][NMedβ3hAla][dV][NMeL][NMeV]))",
    "Caco2 Papp (10^-6 cm/sec)": "0.22 10^-6 cm/sec"
  }
]
